target: MUSK (human) (UniProt O15146); assay: KINOMEscan competition binding; conditions: compound 10.0 µM
Sequence (O15146 whole entry, looked up): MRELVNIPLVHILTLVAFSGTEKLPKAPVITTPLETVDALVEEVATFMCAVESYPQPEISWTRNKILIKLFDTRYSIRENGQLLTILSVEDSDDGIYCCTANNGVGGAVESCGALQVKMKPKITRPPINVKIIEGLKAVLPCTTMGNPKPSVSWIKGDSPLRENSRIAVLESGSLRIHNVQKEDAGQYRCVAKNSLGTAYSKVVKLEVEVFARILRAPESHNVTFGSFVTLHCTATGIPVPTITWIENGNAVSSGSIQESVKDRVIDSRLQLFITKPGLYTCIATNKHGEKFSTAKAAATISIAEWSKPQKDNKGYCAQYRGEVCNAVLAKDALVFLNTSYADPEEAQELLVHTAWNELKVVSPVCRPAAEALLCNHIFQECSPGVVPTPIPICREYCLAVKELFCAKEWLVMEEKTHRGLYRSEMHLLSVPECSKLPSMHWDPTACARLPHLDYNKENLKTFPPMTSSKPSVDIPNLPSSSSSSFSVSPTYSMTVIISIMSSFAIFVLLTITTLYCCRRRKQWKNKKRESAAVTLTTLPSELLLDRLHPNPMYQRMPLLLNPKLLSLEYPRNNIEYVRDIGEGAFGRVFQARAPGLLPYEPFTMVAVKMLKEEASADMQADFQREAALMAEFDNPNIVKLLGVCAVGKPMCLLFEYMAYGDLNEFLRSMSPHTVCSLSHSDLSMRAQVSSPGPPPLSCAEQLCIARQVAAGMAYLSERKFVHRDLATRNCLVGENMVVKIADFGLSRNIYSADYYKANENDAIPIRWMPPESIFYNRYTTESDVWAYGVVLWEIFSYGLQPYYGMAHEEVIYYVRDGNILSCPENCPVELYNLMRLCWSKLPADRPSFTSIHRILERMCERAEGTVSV
Observable: kinase still bound, per cent of control (%)
# value in %; strip the unit string

CN(C)C/C=C/C(=O)Nc1ccc(C(=O)Nc2cccc(Nc3nccc(-c4cccnc4)n3)c2)cc1	61

[in] Dear colleague, I am looking for the recorded kinase still bound, per cent of control of the following compound: COc1cc(C(=O)N2CCC(N3CCN(C)CC3)CC2)ccc1Nc1ncc2c(n1)N(C)c1ccccc1C(=O)N2C
[out] 99

[in] Same question, COc1cc2ncn(-c3cc(OCc4ccccc4C(F)(F)F)c(C(N)=O)s3)c2cc1OC this time
[out] 100

[in] Same question, COc1cc(N2CCN(C)CC2)ccc1Nc1ncc2c(n1)N(C)c1ccccc1C(=O)N2C this time
[out] 100

FYI, the data here is from the kinase profiling compilation of Christmann-Franck et al. (2016).
